assayedTarget: BsAcuC (2c) (Bacillus subtilis)
Construct: made in house; host or cells: E. coli BL21 (DE3)
Sequence (P39067 1-387): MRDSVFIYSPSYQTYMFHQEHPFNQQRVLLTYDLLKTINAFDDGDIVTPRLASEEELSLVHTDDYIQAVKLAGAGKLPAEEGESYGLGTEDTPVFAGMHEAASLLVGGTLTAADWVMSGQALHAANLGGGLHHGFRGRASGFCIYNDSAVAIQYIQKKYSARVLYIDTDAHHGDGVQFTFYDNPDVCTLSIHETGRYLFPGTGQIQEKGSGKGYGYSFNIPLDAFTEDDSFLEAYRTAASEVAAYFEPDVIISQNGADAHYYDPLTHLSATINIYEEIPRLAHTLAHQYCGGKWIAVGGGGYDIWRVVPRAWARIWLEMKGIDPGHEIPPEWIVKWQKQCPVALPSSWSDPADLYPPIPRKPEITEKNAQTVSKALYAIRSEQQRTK
experimentSummary: Dose-response inhibition assay
Type: biochemical
testContext: 40 µM LGKac, 200 nM enzyme, 30 min, 37 °C; read-out: IC50
readout: IC50 (nM)
Report as a plain number; the unit nM is understood.

Req: Quick one: IC50 of CC(/C=C/C(=O)NO)=C\[C@@H](C)C(=O)c1ccc(N(C)C)cc1 [TSA, trichostatin A] ?
Resp: 593

====

// reported [acetate] mean per item
assayedTarget: PA1409 (Pseudomonas aeruginosa, UniProt Q9I3T5)
Sequence (Q9I3T5 whole entry): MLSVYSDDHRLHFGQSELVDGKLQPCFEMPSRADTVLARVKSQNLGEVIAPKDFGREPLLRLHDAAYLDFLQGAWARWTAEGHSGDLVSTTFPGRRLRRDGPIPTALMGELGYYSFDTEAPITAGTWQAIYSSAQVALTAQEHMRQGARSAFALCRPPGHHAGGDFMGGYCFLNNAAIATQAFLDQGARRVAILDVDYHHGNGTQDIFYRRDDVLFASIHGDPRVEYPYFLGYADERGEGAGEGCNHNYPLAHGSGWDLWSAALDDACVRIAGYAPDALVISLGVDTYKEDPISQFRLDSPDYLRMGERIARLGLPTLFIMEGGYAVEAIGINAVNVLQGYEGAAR
experimentSummary: Acetyl-polyamine deacetylase assay (positive control)
Assay type: biochemical
testContext: PA1409, time 45 min, mean of samples
Report as a plain number; the unit mM is understood.

Observe how each entry below is paired with its result.
CC(=O)NCCCNCCCCNCCCN [N1-acetylspermine]
26.8947
CC(=O)NCCCCN
16.035
CC(=O)NCCCCCN
23.3835
CC(=O)NCCCNCCCCNCCCN [N1/N12-acetylspermine]
44.5381
CC(=O)NCCCCNCCCN
25.0553

Lab note: next compound to report on.
Req: PA1409 (Pseudomonas aeruginosa, UniProt Q9I3T5) / [acetate] mean / `CC(=O)NCCCNCCCCN` : value?
Resp: 15.3306

====

// reported IC50 per item
assayedTarget: LcApaH (3) (Legionella cherrii, UniProt A0A0W0SGS1)
Sequence (A0A0W0SGS1 1-425): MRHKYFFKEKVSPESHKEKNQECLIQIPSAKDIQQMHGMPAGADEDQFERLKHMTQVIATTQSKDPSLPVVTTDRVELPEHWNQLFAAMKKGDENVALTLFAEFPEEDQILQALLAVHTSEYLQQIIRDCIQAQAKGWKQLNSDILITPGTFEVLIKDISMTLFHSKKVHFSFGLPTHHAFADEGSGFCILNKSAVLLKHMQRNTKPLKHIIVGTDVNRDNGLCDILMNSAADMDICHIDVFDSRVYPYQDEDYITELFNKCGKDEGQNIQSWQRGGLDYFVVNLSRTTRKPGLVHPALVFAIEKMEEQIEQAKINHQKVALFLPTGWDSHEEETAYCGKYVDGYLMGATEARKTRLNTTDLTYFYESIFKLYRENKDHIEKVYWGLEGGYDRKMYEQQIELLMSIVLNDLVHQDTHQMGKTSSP
experimentSummary: biochemical
testContext: Log[IC50(M)], decadic log of IC50; 40 µM LGKac, 0.5 nM enzyme, 30 min, 37 °C
Report as a plain number; the unit M is understood.

O=C(CCCCCCC(=O)Nc1ccccc1)NO [SAHA, suberoylanilide hydroxamic acid]
8.13e-07

Req: LcApaH (3) (Legionella cherrii, UniProt A0A0W0SGS1) / IC50 / CC(/C=C/C(=O)NO)=C\[C@@H](C)C(=O)c1ccc(N(C)C)cc1 [TSA, trichostatin A] : value?
Resp: 1.05e-08

====

assayedTarget: PsApaH (4) (Pseudomonas sp. M30-35, UniProt A0A1Y0KY79)
experimentSummary: Acetyl-polyamine deacetylase assay
Format: biochemical
testContext: time 20 min, mean of samples
// reported [acetate] mean per item
Report as a plain number; the unit mM is understood.

Observe how each entry below is paired with its result.
CC(=O)NCCCNCCCCNCCCN [N1/N12-acetylspermine]
7.598
CC(=O)NCCCCN
12.4

Req: Quick one: [acetate] mean of CC(=O)NCCCNCCCCNCCCN [N1-acetylspermine] ?
Resp: 8.96

====

assayedTarget: KpHdaH (1b) (Klebsiella pneumoniae, UniProt A0A377Z5F6)
Sequence (A0A377Z5F6 1-371): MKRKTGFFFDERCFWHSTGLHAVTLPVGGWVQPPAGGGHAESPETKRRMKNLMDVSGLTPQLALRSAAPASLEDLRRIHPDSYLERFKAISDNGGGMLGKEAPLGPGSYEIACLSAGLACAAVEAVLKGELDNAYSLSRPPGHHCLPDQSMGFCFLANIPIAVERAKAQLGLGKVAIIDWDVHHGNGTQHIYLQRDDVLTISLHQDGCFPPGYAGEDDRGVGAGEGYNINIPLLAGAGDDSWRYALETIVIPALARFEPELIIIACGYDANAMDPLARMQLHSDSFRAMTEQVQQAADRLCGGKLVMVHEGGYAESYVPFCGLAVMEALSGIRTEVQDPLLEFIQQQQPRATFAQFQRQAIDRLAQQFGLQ
experimentSummary: biochemical
testContext: Log[IC50(M)], decadic log of IC50; 60 µM QPKKac, 15 nM enzyme, 60 min, 37 °C
readout: IC50

O=C(CCCCCCC(=O)Nc1ccccc1)NO [SAHA, suberoylanilide hydroxamic acid]
9.77e-08 M

Lab note: next compound to report on.
Req: KpHdaH (1b) (Klebsiella pneumoniae, UniProt A0A377Z5F6) / IC50 / CC(/C=C/C(=O)NO)=C\[C@@H](C)C(=O)c1ccc(N(C)C)cc1 [TSA, trichostatin A] : value?
Resp: ≤ 1.07e-08 M

====

assayedTarget: PA1409 (Pseudomonas aeruginosa, UniProt Q9I3T5)
experimentSummary: Acetyl-polyamine deacetylase assay (positive control)
Type: biochemical
testContext: PA1409, time 5 min, mean of samples
The label Fulfilled is reserved for [acetate] mean strictly under 4 mM; Not fulfilled covers values equal to or above it.

Would you please look over these solved cases?
CC(=O)NCCCNCCCCN
Fulfilled
CC(=O)NCCCNCCCCNCCCN [N1-acetylspermine]
Not fulfilled
CC(=O)NCCCCNCCCN
Not fulfilled
CC(=O)NCCCNCCCCNCCCN [N1/N12-acetylspermine]
Fulfilled
CC(=O)NCCCCCN
Fulfilled

Req: Take the compound `CC(=O)NCCCCN` and say whether its [acetate] mean is less than 4 mM.
Resp: Fulfilled

====

assayedTarget: PA1409 (Pseudomonas aeruginosa)
experimentSummary: Acetyl-polyamine deacetylase assay (positive control)
Type: biochemical
testContext: PA1409, time 10 min, mean of samples
readout: [acetate] mean
Remember to quote the unit after the number.

Observe how each entry below is paired with its result.
CC(=O)NCCCCNCCCN
19.6439 mM
CC(=O)NCCCNCCCCN
8.657 mM
CC(=O)NCCCCCN
14.5185 mM
CC(=O)NCCCNCCCCNCCCN [N1-acetylspermine]
18.3923 mM

Lab note: next compound to report on.
Req: Quick one: [acetate] mean of CC(=O)NCCCNCCCCNCCCN [N1/N12-acetylspermine] ?
Resp: 18.6787 mM
